Molecular target: T1, human TL1A extracellular domain with N-terminal HIS and FLAG tag (human, UniProt O95150 72-251)
T1 construct: the whole entry is named
T1 sequence: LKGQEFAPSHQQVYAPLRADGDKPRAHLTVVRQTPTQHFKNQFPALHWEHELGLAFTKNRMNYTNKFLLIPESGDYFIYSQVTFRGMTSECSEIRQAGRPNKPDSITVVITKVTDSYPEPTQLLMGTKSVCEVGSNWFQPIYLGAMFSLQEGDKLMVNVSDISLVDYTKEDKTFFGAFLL
Assay: SPR Run 5, Ab from supernatant captured on Protein A, TL1A 5 ug/mL, timepoint 44
endpointName: TL1A Binding Level (Early) (RU)
Please give a number only; it is taken to be in RU.

Examples from the recorded data:
1) 320-392 (antibody, human IgG1, name in Kabat numbering, V domains shown, human IgG1, lambda) VH: QVQLVQSGAEVKKPGASVKVSCKASHYTFTSYDINWVRQAPGQGLEWMGWLNPNSGNTGYAQKFQGRVTMTADRSTSTAYMELSSLRSEDTAVYYCAREVPETAAFEYWGQGTLVTVSS VL: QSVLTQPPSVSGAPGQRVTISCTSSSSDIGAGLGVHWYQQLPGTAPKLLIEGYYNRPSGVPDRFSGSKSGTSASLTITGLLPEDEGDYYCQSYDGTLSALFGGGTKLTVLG; 12
2) 320-428 (antibody, human IgG1, name in Kabat numbering, V domains shown, human IgG1, lambda) VH: QVQLVQSGAEVKKPGASVKVSCKASGYTFLSYDINWVRQAPGQGLEWMGWLNPNSGNTGYAQKFQGRVTMTADRSTSTAYMELSSLRSEDTAVYYCAREVPETAAFEYWGQGTLVTVSS VL: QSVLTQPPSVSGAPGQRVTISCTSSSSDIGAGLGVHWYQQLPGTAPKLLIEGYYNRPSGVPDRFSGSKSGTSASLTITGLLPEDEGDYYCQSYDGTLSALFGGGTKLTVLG; 11
3) 320-424 (antibody, human IgG1, name in Kabat numbering, V domains shown, human IgG1, lambda) VH: QVQLVQSGAEVKKPGASVKVSCKASGYTFQSYDINWVRQAPGQGLEWMGWLNPNSGNTGYAQKFQGRVTMTADRSTSTAYMELSSLRSEDTAVYYCAREVPETAAFEYWGQGTLVTVSS VL: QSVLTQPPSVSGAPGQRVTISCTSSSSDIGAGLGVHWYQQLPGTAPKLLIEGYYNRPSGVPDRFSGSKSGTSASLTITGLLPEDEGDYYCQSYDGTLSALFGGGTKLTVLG; 11
4) 320-412 (antibody, human IgG1, name in Kabat numbering, V domains shown, human IgG1, lambda) VH: QVQLVQSGAEVKKPGASVKVSCKASGYYFTSYDINWVRQAPGQGLEWMGWLNPNSGNTGYAQKFQGRVTMTADRSTSTAYMELSSLRSEDTAVYYCAREVPETAAFEYWGQGTLVTVSS VL: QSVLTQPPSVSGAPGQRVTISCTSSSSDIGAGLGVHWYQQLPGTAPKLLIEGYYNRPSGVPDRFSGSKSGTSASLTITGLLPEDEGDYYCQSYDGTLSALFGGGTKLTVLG; 10

// TL1A Binding Level (Early) lookup, key: 320-395 (antibody, human IgG1, name in Kabat numbering, V domains shown, human IgG1, lambda) VH: QVQLVQSGAEVKKPGASVKVSCKASWYTFTSYDINWVRQAPGQGLEWMGWLNPNSGNTGYAQKFQGRVTMTADRSTSTAYMELSSLRSEDTAVYYCAREVPETAAFEYWGQGTLVTVSS VL: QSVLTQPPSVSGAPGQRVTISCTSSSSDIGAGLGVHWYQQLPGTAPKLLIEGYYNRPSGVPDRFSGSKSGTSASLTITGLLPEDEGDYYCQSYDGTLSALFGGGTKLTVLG
13
